Target: hURAT1 Transporter (Homo sapiens, UniProt Q96S37)
Construct: Full-length human URAT1 gene (SLC22A12) was subcloned from plasmid pCMV6-XL5
Sequence (Q96S37 whole entry): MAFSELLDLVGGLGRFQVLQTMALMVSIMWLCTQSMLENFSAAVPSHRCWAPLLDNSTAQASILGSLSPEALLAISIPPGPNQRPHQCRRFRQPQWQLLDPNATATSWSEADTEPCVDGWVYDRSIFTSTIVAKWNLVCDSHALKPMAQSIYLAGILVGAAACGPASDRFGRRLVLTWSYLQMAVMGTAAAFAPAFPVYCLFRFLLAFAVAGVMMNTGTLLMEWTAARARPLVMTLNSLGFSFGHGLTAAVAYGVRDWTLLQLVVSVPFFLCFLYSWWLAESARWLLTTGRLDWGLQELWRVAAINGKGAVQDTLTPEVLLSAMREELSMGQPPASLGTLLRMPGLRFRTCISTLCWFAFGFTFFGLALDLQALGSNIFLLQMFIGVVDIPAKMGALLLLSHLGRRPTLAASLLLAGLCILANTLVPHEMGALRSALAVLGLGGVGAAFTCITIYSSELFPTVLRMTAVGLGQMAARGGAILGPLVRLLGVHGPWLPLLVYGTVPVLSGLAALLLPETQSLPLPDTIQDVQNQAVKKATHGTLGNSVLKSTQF
Assay: Uric Acid Uptake Assay
Conditions: HEK293/urat1 cells; C14 Uric Acid 40 μM; 10 minutes at room temperature
Measured Endpoint: EC50

Structure As Smiles | Measured On | EC50
Cc1ccc(-n2cnnc2SCC(=O)O)c2c1CCCC2 | hURAT1 Transporter (Homo sapiens, UniProt Q96S37) | > 30 µM
O=C(O)CSc1nnc(Br)n1-c1cccc2ccccc12 | hURAT1 Transporter (Homo sapiens, UniProt Q96S37) | 1 to 30 µM
O=C(O)CSc1nnc(C(F)(F)F)n1-c1cccc2ccccc12 | hURAT1 Transporter (Homo sapiens, UniProt Q96S37) | 1 to 30 µM
CCOC(=O)CCCSc1nnc(N)n1-c1ccc(C2CC2)c2ccccc12 | hURAT1 Transporter (Homo sapiens, UniProt Q96S37) | 1 to 30 µM
CCc1ccc(-n2c(SCC(=O)O)nnc2C(F)F)c2ccccc12 | hURAT1 Transporter (Homo sapiens, UniProt Q96S37) | 1 to 30 µM

For the next question, use this compound.
Retrieve EC50 measured for `Cc1ccc(-n2cnnc2SCC(=O)O)c2c1NCCC2` and print it.
> 30 µM

----------
Molecular target: hURAT1 Transporter (Homo sapiens)
Construct: Full-length human URAT1 gene (SLC22A12) was subcloned from plasmid pCMV6-XL5
Experiment: Uric Acid Uptake Assay
Conditions: HEK293/urat1 cells; C14 Uric Acid 40 μM; 10 minutes at room temperature
pEC50: −log10 of the molar value.
Measured Endpoint: pEC50

Example cases with answers are listed next.
Compound | Measured On | Measured Endpoint | Result
CCOC(=O)C(C)Sc1nnc(N)n1-c1ccc(C2CC2)c2ccccc12 (centres unmarked) | hURAT1 Transporter (Homo sapiens) | pEC50 | 4.52 to 6.00
CC(C)(Sc1nnc(Br)n1-c1ccc(C2CC2)c2ccccc12)C(=O)O | hURAT1 Transporter (Homo sapiens) | pEC50 | 6.00 to 9.00
Cc1nnc(SCC(=O)O)n1-c1ccc2c(c1)OCCO2 | hURAT1 Transporter (Homo sapiens) | pEC50 | < 4.52
O=C(O)CSc1nnc(-c2ccccc2)n1-c1ccc(C2CC2)c2ccccc12 | hURAT1 Transporter (Homo sapiens) | pEC50 | 4.52 to 6.00
CC(C)(Sc1nnc(C(F)(F)F)n1-c1ccc(C2CC2)c2ccccc12)C(=O)O | hURAT1 Transporter (Homo sapiens) | pEC50 | 6.00 to 9.00

Specify reported pEC50 for the compound shown: `CCOC(=O)CSc1nnc(C(F)F)n1-c1ccc(CC)c2ccccc12`
< 4.52

Tell us which pEC50 value is on record for `Cc1cc(C)c2ccccc2c1-n1c(SCC(=O)O)nnc1C(F)F`
4.52 to 6.00

Kindly indicate its recorded pEC50. Item: `Cc1ccc(-n2c(SCC(=O)O)nnc2C(F)(F)F)c2c1CCCC2`
6.00 to 9.00

Identify the reported pEC50 for the following entry. `Cc1ccc(-n2c(SCC(=O)O)nnc2C(F)F)c2c1NCCC2`
< 4.52

Give recorded pEC50. `CCCSc1nnc(Br)n1-c1ccc(C2CC2)c2ccccc12`
4.52 to 6.00

Give me measured pEC50, please, for this compound: `COc1ccc(-n2c(SCC(=O)O)nnc2C(F)(F)F)c2c1CCCC2`
4.52 to 6.00

Ref: patent US8633232B2
